ASSAYED TARGET: Jack bean urease (Canavalia ensiformis, UniProt P07374)
Construct: purchased Sigma Aldrich
Sequence (P07374 whole entry, looked up): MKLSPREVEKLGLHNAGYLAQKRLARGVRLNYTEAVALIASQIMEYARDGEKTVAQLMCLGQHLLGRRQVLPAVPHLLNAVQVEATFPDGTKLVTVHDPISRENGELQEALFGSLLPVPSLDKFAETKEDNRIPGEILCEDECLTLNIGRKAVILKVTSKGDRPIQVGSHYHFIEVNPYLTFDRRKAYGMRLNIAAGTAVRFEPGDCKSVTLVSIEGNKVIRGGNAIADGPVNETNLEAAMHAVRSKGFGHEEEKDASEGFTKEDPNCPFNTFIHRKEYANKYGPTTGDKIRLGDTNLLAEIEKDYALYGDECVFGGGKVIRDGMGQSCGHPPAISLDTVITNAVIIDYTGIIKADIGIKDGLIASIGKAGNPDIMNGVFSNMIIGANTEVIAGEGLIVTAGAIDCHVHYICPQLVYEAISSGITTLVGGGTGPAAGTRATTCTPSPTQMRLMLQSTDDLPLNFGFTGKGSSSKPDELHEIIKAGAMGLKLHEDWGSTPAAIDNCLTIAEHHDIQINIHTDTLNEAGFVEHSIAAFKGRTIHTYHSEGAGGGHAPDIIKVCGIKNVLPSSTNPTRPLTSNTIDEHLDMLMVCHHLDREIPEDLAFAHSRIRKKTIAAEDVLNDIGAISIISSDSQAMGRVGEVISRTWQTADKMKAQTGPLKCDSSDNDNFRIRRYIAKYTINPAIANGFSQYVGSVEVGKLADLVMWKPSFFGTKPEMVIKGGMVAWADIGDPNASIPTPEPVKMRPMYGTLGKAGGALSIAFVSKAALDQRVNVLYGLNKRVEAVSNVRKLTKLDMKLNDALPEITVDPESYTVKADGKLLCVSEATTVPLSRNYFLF
METHOD DESCRIPTION: biochemical
Format: biochemical
Criterion: IC50 strictly under 5 µM. Met: criterion met. Not met: criterion not met.

> print(dat)
                                 smiles.code        class.label
 1  O=S(=O)(Oc1cccc(-c2nc3sccn3c2-c2ccccc2)c1)N1CCCCC1  criterion not met
 2  O=S(=O)(Oc1cccc(-c2nc3sccn3c2-c2ccccc2)c1)c1ccc(F)cc1  criterion not met
 3  CS(=O)(=O)c1cccc(-c2c(-c3cccc(OS(=O)(=O)N4CCCCC4)c3)nc3sccn23)c1  criterion not met
 4  CS(=O)(=O)Oc1cccc(-c2nc3sccn3c2-c2ccccc2)c1      criterion met
 5  Cc1ccc(S(=O)(=O)Oc2cccc(-c3nc4sccn4c3-c3cccc(S(C)(=O)=O)c3)c2)cc1  criterion not met
 6  O=S(=O)(Oc1cccc(-c2nc3sccn3c2-c2ccccc2)c1)c1ccccc1      criterion met
 7  Cc1ccc(S(=O)(=O)Oc2cccc(-c3nc4sccn4c3-c3ccccc3)c2)cc1      criterion met
 8  CCS(=O)(=O)Oc1cccc(-c2nc3sccn3c2-c2ccccc2)c1      criterion met
 9  CS(=O)(=O)c1cccc(-c2c(-c3cccc(OS(=O)(=O)c4ccccc4)c3)nc3sccn23)c1  criterion not met
10  CS(=O)(=O)c1cccc(-c2c(-c3cccc(OS(=O)(=O)c4ccc(F)cc4)c3)nc3sccn23)c1  criterion not met
11  CS(=O)(=O)c1cccc(-c2c(-c3cccc(OS(N)(=O)=O)c3)nc3sccn23)c1      criterion met
12  NS(=O)(=O)Oc1cccc(-c2nc3sccn3c2-c2ccccc2)c1      criterion met
13  CNS(=O)(=O)Oc1cccc(-c2nc3sccn3c2-c2ccccc2)c1  criterion not met

====

Quick reference: pIC50 of the listed items.
System: H. pylori
METHOD DESCRIPTION: IC50 against H. pylori, micro broth dilution test
Type: cell-based, Helicobacter pylori
TEST CONTEXT: Helicobacter pylori, ATCC43504; H. pylori ATCC 43504, micro broth dilution, 72 h, OD 600 nm; read-out: IC50 value against H. pylori ± SEM
pIC50: −log10 of the molar value.
MEASURED QUANTITY: pIC50

> print(dat)
                                 smiles.code  measured.quantity   val
 1  O=S(=O)(Oc1cccc(-c2nc3sccn3c2-c2ccccc2)c1)c1ccc(F)cc1              pIC50  3.83
 2  CCS(=O)(=O)Oc1cccc(-c2nc3sccn3c2-c2cccc(S(C)(=O)=O)c2)c1              pIC50  3.59
 3  NS(=O)(=O)Oc1cccc(-c2nc3sccn3c2-c2ccccc2)c1              pIC50  4.55
 4  CCCS(=O)(=O)Oc1cccc(-c2nc3sccn3c2-c2ccccc2)c1              pIC50  3.44
 5  CS(=O)(=O)c1cccc(-c2c(-c3cccc(OS(N)(=O)=O)c3)nc3sccn23)c1              pIC50  3.65
 6  O=S(=O)(Oc1cccc(-c2nc3sccn3c2-c2ccccc2)c1)N1CCCCC1              pIC50  3.88
 7  O=S(=O)(Oc1cccc(-c2nc3sccn3c2-c2ccccc2)c1)c1ccccc1              pIC50  3.82
 8  Cc1ccc(S(=O)(=O)Oc2cccc(-c3nc4sccn4c3-c3ccccc3)c2)cc1              pIC50  4.43
 9  CCS(=O)(=O)Oc1cccc(-c2nc3sccn3c2-c2ccccc2)c1              pIC50  4.09
10  CS(=O)(=O)Oc1cccc(-c2nc3sccn3c2-c2ccccc2)c1              pIC50  4.64
